assay_notes: Plasma pharmacokinetics after single
Type: in vivo, Japanese patients
condition_description: human, plasma, oral, 15 mg
property_label: half-life
# include the unit after the value

Query block: Using the record for COc1cc2ncnc(Nc3ccc(F)c(Cl)c3)c2cc1NC(=O)/C=C/CN1CCCCC1 , report its half-life.
Result block: 61.1 h

* * *

assay_notes: Plasma pharmacokinetics after single
Assay type: in vivo, Japanese patients
condition_description: human, plasma, oral, 30 mg
property_label: half-life (h)
A number alone suffices; assume h.

Query block: Reported half-life for COc1cc2ncnc(Nc3ccc(F)c(Cl)c3)c2cc1NC(=O)/C=C/CN1CCCCC1 : what is it?
Result block: 98

* * *

assay_notes: Plasma pharmacokinetics after single
Type: in vivo, Japanese patients
condition_description: human, plasma, oral, 30 mg, Cmax, multiple dose (C1D14), 30 mg QD, N 3, mean (%CV)
property_label: Cmax (ng/mL)
Answer in ng/mL, number only, no unit symbol.

Query block: What value of measured Cmax is listed for COc1cc2ncnc(Nc3ccc(F)c(Cl)c3)c2cc1NC(=O)/C=C/CN1CCCCC1 [dacomitinib, Dacomitinib] ?
Result block: 64.3
